Target: ErbB4 (Homo sapiens)
Sequence (Q15303 26-1308, species assumed): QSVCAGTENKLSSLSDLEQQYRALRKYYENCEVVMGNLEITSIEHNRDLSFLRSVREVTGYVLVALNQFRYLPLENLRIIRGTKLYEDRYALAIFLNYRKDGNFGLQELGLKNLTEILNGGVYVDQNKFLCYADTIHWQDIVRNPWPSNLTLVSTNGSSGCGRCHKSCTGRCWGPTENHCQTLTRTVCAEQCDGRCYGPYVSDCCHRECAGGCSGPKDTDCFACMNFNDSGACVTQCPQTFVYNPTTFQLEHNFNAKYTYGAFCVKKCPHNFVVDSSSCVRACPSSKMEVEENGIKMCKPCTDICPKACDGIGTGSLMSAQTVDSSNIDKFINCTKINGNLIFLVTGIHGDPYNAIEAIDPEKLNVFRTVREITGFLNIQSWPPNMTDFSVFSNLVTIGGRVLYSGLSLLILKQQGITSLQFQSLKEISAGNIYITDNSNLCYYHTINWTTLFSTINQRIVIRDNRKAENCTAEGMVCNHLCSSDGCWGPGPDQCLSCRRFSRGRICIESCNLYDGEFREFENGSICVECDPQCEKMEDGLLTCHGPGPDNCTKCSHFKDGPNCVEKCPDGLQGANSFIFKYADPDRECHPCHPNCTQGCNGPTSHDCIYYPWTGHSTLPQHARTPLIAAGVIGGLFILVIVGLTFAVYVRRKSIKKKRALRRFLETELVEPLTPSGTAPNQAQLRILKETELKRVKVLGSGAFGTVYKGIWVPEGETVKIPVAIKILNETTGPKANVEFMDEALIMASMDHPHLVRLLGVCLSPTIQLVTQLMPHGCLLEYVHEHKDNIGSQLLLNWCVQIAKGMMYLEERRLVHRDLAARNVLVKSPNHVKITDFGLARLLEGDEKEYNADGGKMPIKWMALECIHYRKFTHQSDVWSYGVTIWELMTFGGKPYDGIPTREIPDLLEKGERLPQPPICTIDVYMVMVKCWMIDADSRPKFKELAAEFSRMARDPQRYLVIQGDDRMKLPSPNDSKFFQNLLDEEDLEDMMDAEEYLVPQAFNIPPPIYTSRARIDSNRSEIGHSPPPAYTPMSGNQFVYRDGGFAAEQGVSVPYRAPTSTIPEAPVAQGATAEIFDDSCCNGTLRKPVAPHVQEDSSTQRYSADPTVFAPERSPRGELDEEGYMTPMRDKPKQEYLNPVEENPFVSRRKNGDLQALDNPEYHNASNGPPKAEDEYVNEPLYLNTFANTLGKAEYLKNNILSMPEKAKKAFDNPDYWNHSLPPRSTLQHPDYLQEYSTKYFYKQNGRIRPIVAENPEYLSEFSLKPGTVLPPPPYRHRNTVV
OUTCOME_MEASURE: IC50

>>> recorded_result("COc1cc(Nc2ncnc(N3CCCC4CCCCC43)n2)cc(OC)c1OC (stereo not shown)")
"1 to 6.01 µM"
>>> recorded_result("C=CCN(c1ccc(Cl)cc1)c1ncnc(Nc2cc(OC)c(OC)c(OC)c2)n1")
"0.935 to 5.61 µM"
>>> recorded_result("COc1cc(Nc2ncnc(-n3c(NCc4ccc(C)cc4)nc4ccccc43)n2)cc(OC)c1OC")
"> 9.04 µM"
>>> recorded_result("COc1cc(Nc2ncnc(N(C)c3cccc(Cl)c3)n2)cc(OC)c1OC")
"8.71 to 11.2 µM"

----------
Reported IC50 is given for each of the following molecules.
Biological target: Zap-70 (Homo sapiens)
Construct: Kinases are expressed as either kinase domains or full length constructs; made in house
Sequence (P43403 whole entry, species assumed, the tested form may be a part): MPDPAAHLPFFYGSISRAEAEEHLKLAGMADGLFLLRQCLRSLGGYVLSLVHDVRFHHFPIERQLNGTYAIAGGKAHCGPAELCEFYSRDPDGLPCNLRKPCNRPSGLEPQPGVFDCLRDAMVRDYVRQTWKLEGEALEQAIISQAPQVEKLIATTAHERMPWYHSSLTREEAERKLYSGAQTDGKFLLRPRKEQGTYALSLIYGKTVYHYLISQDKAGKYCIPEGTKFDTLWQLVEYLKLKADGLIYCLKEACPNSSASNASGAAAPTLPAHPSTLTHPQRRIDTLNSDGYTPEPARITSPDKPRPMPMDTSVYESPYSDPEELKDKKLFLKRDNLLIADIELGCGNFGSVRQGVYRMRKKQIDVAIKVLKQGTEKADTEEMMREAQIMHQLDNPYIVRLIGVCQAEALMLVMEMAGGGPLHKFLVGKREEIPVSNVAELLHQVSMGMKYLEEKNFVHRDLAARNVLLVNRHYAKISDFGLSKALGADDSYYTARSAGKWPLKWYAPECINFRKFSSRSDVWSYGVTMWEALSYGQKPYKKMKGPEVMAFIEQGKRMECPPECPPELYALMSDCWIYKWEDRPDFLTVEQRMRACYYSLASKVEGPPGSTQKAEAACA
Experiment: Kinase inhibition assay (33P transfer), Zap-70
Format: biochemical
Details: Table 3; read-out: Zap-1
OUTCOME_MEASURE: IC50

>>> recorded_result("COc1cc(Nc2ncnc(N(CCC(C)C)c3ccc(Cl)cc3)n2)cc(OC)c1OC")
"> 9.83 µM"
>>> recorded_result("Clc1ccccc1Nc1ncnc(-n2cccc2)n1")
"> 16.6 µM"
>>> recorded_result("COc1cc(Nc2ncnc(-c3ccccc3)n2)cc(OC)c1")
"11.4 to 14.6 µM"
>>> recorded_result("Cc1cccc(Nc2ncnc(Nc3ccc4[nH]ccc4c3)n2)c1")
"> 14.2 µM"
>>> recorded_result("COc1cc(Nc2ncnc(-n3cc(OC(C)=O)c4ccccc43)n2)cc(OC)c1OC")
"> 10.3 µM"
>>> recorded_result("Nc1ncnc(Nc2cccc(Nc3ncnc(N)n3)c2)n1")
"> 15.2 µM"
>>> recorded_result("COc1cc(Nc2ncnc(-c3ccc(N4CCNCC4)nc3)n2)cc(OC)c1OC")
"> 10.6 µM"
>>> recorded_result("COc1cc(Nc2ncnc(Nc3ccc(C)c([N+](=O)[O-])c3)n2)cc(OC)c1OC")
"> 10.9 µM"
>>> recorded_result("COc1cccc(NC(=O)Nc2ncnc(Nc3cc(OC)c(OC)c(OC)c3)n2)c1")
"8.21 to 10.6 µM"
>>> recorded_result("O=c1[nH]c2ccccc2n1-c1ncnc(Nc2cccc(-c3cnco3)c2)n1")
"> 12.1 µM"
>>> recorded_result("OCCCNc1cc(-c2ncnc(Nc3cccc(OC(F)(F)C(F)F)c3)n2)ccn1")
"> 10.3 µM"
>>> recorded_result("COc1cc(Nc2ncnc(-n3c(Nc4ccc(F)cc4)nc4ccccc43)n2)cc(OC)c1OC")
"> 9.23 µM"
>>> recorded_result("COc1cc(Nc2ncnc(-n3c(NC(C)=O)nc4ccccc43)n2)cc(OC)c1OC")
"> 10.3 µM"
>>> recorded_result("COc1ccc(Nc2ncnc(Nc3ccccc3C)n2)cc1OC")
"> 13.3 µM"
>>> recorded_result("COc1cc(Nc2ncnc(-n3ccc4ccc(Cl)cc43)n2)cc(OC)c1OC")
"8.5 to 10.9 µM"
>>> recorded_result("COc1cc(Nc2ncnc(-c3ccnc(N4CCCCC4)c3)n2)cc(OC)c1OC")
"> 10.7 µM"
>>> recorded_result("COc1cc(Nc2ncnc(Nc3nc(-c4ccccc4)cs3)n2)cc(OC)c1OC")
"> 10.3 µM"
>>> recorded_result("OCc1ccc(Nc2ncnc(-c3ccccc3)n2)cc1")
"> 16.2 µM"
>>> recorded_result("COc1cc(Nc2ncnc(-n3c(NC(C)C)nc4ccccc43)n2)cc(OC)c1OC")
"> 10.3 µM"
>>> recorded_result("COc1cc(OC)cc(-c2nnc(Nc3ncnc(Nc4cc(OC)c(OC)c(OC)c4)n3)[nH]2)c1")
"> 9.37 µM"
>>> recorded_result("COc1cc(Nc2ncnc(Cl)n2)cc(OC)c1OC")
"> 15.2 µM"
>>> recorded_result("COc1cc(Nc2ncnc(Nc3ccccn3)n2)cc(OC)c1OC")
"> 12.7 µM"
>>> recorded_result("Fc1cccc(Nc2ncnc(-c3cccs3)n2)c1")
"> 16.5 µM"
>>> recorded_result("C=CCN(c1ccc(Cl)cc1)c1ncnc(Nc2cc(OC)c(OC)c(OC)c2)n1")
"> 10.5 µM"
>>> recorded_result("COc1cc(Nc2ncnc(Nc3cc(OC)c(OC)c(OC)c3)n2)cc(OC)c1")
"> 10.9 µM"
>>> recorded_result("COc1cc(Nc2ncnc(Nc3ccccc3)n2)cc(OC)c1OC")
"> 12.7 µM"
>>> recorded_result("COCCOc1ccc(Nc2ncnc(Nc3cc(-c4ccco4)n[nH]3)n2)cc1OCCOC")
"> 9.63 µM"
>>> recorded_result("COc1ccc(Nc2ncnc(N(CC(=O)OC(C)(C)C)c3ccc4c(c3)OCO4)n2)cc1OC")
"> 9.35 µM"
>>> recorded_result("FC(F)C(F)(F)Oc1cccc(Nc2ncnc(-c3ccnc(Cl)c3)n2)c1")
"> 11.3 µM"
>>> recorded_result("Nc1nc2ccccc2n1-c1ncnc(Nc2cccc(-c3cnco3)c2)n1")
"6.48 to 9.45 µM"
>>> recorded_result("COc1cc(Nc2ncnc(Nc3ccc(NCc4ccccc4)cc3)n2)cc(OC)c1OC")
"> 9.81 µM"
>>> recorded_result("COc1cc(Nc2ncnc(-n3ccc4ccccc43)n2)cc(OC)c1OC")
"> 11.9 µM"
>>> recorded_result("COc1cc(Nc2ncnc(N3CCCC3)n2)cc(OC)c1OC")
"> 13.6 µM"
>>> recorded_result("Clc1cc(Cl)cc(Nc2ncnc(-n3cccc3)n2)c1")
"> 14.7 µM"
>>> recorded_result("COc1ccc(Oc2ncnc(Nc3cc(OC)c(OC)c(OC)c3)n2)cc1")
"> 11.7 µM"
>>> recorded_result("COc1cccc(Nc2ncnc(-c3ccccc3)n2)c1")
"> 16.2 µM"
